FYI, the data here is from ChEMBL document CHEMBL1240532.

experimental target: Thromboxane A2 receptor (Homo sapiens, UniProt P21731)
Sequence (P21731 whole entry): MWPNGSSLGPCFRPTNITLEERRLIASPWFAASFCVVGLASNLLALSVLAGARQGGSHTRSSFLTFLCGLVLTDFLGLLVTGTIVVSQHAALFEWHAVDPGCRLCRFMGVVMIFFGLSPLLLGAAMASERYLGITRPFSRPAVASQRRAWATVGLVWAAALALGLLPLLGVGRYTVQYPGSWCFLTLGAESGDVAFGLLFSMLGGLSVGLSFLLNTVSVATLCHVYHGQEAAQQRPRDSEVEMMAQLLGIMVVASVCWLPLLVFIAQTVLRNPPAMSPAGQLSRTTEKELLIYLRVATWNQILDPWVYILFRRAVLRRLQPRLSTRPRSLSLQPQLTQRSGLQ
experiment description: Binding affinity to human recombinant thromboxane A2 receptor
measured attribute: IC50

Please report the measured IC50 for "C[C@H]1Cc2c([nH]c3cc(Cl)c(F)cc23)[C@@]2(N1)C(=O)Nc1ccc(Cl)cc12" > 30 µM

----------
experiment description: AUC (0 to infinity) in Wistar rat at 5 mg/kg, iv
Assay type: ADME, organism-based
Set-up: time infinity, dose 5 mg/kg, route intravenous
conditions: plasma
measured attribute: AUC(0-inf)
Give me the value, and tack the unit on after it.

Please report the measured AUC(0-inf) for C[C@H]1Cc2c([nH]c3cc(Cl)c(F)cc23)[C@@]2(N1)C(=O)Nc1ccc(Cl)cc12 [CIPARGAMIN] 61.3 µM·h

----------
experimental target: Motilin receptor (Homo sapiens)
Sequence (O43193 whole entry): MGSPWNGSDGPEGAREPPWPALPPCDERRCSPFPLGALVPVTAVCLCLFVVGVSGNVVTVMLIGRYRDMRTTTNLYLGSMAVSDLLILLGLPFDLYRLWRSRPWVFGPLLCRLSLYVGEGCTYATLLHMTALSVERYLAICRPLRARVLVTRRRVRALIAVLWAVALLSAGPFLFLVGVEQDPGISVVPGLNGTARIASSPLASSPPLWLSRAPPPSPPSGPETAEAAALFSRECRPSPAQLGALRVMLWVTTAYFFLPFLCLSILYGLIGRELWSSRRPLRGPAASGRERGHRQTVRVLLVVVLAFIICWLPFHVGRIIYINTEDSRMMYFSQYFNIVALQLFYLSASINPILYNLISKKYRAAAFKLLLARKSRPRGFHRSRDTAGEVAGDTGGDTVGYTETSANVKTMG
experiment description: Binding affinity to human recombinant motilin receptor
measured attribute: IC50

For Motilin receptor (Homo sapiens), give the measured IC50 of the entry "C[C@H]1Cc2c([nH]c3cc(Cl)c(F)cc23)[C@@]2(N1)C(=O)Nc1ccc(Cl)cc12" > 10 µM

----------
Test system: Plasmodium falciparum
Type: functional, organism-based
conditions: Dd2, 72 h
measured attribute: IC50

Please report the measured IC50 for C[C@@H]1C[C@@H]([C@H](O)CC2CC(=O)NC(=O)C2)C(=O)[C@@H](C)C1 [CYCLOHEXIMIDE] 301 nM

----------
experimental target: Vasopressin V2 receptor (Homo sapiens)
Sequence (P30518 whole entry): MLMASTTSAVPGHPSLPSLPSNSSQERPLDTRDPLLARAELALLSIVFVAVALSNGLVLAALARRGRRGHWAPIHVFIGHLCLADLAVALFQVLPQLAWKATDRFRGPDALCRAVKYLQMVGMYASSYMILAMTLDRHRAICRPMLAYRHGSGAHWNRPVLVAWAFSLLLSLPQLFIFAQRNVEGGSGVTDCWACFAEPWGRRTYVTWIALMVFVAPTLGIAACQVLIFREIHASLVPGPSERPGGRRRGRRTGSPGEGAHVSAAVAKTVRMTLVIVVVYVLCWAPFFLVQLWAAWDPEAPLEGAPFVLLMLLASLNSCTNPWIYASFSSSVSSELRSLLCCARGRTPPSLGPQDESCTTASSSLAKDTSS
experiment description: Binding affinity to human recombinant vasopressin V2 receptor
pIC50: −log10 of the molar value.
measured attribute: pIC50

Please report the measured pIC50 for "C[C@H]1Cc2c([nH]c3cc(Cl)c(F)cc23)[C@@]2(N1)C(=O)Nc1ccc(Cl)cc12" < 4.52

----------
experimental target: Prostaglandin G/H synthase 2 (Homo sapiens, UniProt P35354)
Sequence (P35354 whole entry): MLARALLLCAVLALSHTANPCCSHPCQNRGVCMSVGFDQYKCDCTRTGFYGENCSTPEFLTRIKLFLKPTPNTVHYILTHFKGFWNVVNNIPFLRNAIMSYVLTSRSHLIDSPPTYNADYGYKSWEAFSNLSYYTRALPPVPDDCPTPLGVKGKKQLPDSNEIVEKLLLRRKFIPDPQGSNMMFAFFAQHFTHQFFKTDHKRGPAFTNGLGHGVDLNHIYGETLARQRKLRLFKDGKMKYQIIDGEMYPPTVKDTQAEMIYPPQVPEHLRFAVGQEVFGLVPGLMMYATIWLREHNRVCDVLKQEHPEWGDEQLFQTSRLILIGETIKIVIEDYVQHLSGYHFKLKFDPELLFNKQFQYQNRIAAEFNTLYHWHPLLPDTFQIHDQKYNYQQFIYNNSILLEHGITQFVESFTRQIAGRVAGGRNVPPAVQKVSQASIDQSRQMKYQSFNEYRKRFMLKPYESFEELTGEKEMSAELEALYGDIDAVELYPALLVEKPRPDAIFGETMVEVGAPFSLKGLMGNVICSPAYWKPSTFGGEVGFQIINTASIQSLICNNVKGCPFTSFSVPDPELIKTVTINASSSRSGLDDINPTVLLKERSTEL
experiment description: Binding affinity to human recombinant COX2
measured attribute: IC50

Please report the measured IC50 for "C[C@H]1Cc2c([nH]c3cc(Cl)c(F)cc23)[C@@]2(N1)C(=O)Nc1ccc(Cl)cc12" > 30 µM
